Molecular target: T1, human EphA2 on OVCAR-3 and U-251 cells (human, UniProt P29317 24-976)
T1 construct: whole, on cells; also called EphA2 receptors
T1 sequence (P29317 24-976): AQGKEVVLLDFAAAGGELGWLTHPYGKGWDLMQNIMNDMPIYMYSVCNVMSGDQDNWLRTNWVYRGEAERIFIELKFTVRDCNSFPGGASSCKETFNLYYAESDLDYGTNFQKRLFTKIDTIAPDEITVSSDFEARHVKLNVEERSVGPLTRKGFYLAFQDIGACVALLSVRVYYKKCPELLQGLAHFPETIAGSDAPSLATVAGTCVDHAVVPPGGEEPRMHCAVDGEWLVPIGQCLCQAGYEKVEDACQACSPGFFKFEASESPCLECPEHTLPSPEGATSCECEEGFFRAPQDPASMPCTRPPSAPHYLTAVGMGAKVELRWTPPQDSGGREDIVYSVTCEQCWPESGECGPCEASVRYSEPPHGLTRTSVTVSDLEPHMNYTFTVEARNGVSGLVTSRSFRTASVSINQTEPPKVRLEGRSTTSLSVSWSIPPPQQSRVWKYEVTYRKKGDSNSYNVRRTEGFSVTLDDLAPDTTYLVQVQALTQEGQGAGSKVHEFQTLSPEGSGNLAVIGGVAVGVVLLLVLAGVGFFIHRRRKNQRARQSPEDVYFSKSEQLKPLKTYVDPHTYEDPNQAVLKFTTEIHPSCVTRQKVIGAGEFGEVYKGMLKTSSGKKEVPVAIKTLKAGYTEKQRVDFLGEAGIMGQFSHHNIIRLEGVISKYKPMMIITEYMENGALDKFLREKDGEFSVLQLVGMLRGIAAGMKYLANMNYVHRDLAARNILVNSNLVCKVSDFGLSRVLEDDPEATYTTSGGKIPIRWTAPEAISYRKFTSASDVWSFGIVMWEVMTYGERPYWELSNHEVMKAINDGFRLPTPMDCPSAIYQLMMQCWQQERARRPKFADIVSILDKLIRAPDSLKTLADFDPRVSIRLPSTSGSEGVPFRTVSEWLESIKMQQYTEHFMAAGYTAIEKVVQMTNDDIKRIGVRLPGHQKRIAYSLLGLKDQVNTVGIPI
Experiment: CLIA: scFv-decorated fluorescent NTA(Ni) liposomes on EphA2-expressing cells, FACS

binder	binding result
scFv-22 (scFv) scFv: QVQLVQSGGGLVQPGGSLRLSCAASGFTFSSYAMHWVRQAPGKGLEWVTVISPGGPNKYYADSVKGRFTISRDNSKNTLYLQMNSLRAEDTAVYYCARASVGATGPFDIWGQGTLVTVSSASTGGGGSGGGGSGGGGSGGGGSSSELTQPPSVSVAPGQTVTITCQGDSLRSYYASWYQQKPGTAPKLLIYGENNRPSGVPDRFSGSSSGTSASLTITGAQAEDEADYYCNSRDSSGTHLTVFGGGTKLTVLG	binds
scFv-1 (scFv) scFv: QVQLVQSGGGLVQPGGSLRLSCAASGFTFSSYAMHWVRQAPGKGLEWVSVISPAGNNTYYADSVKGRFTISRDNSKNTLYLQMNSLRAEDTAVYYCARASVGATGPFDIWGQGTLVTVSSASTGGGGSGGGGSGGGGSGGGGSSSELTQPPSVSVAPGQTVTITCQGDSLRSYYASWYQQKPGTAPKLLIYGENNRPSGVPDRFSGSSSGTSASLTITGAQAEDEADYYCNSRDSSGTHLTVFGGGTKLTVLG	binds
